Target: T1, human TROP2-his protein (human, UniProt P09758 27-274)
T1 construct: Biotin-labelled in the ELISAs, unlabelled analyte in Biacore; also called biotin-labeled human TROP2-his protein; biotin human Trop2-his
T1 sequence: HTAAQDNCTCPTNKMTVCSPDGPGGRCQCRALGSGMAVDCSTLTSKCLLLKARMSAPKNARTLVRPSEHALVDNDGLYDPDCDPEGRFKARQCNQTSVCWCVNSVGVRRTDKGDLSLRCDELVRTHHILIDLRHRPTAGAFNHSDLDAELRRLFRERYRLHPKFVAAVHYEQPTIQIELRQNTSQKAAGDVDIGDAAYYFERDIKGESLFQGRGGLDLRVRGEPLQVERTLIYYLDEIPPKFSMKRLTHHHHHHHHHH
Assay: SPR Biacore T200, supernatant antibody captured on anti-human IgG CM5 chip, 40 nM human TROP2-his
Could you please mark yes for values of Kd below 0.2 nM and no for values at or above it?

Recorded results for 4 binders are shown here.
binder	group
huA1E4F7D4-V6 (antibody, human IgG1, kappa, V domains shown, Positions of the X residues are given in the claims; Tested as cell supernatant) VH: QVQLVQSGAEVKKPGASVKVSCKASGYSFTTHWIHWVRQAPGQGLEWIGTIFPSNAYAVYNQKFRDRATMTADTSISTAYIELSRLRSDDTAVYYCARASYFDYWGQGTTVTVSS VL: EIVLTQSPATLSLSPGERATLSCRASQNIGTSIHWFQQKPGGSPRLLIKYASESISGIPSRFSGSGSGTDFTLTISSLEPEDFAVYYCQHSHSWPFTFGQGTKLEIKR	yes
huA1E4F7D4-V10 (antibody, human IgG1, kappa, V domains shown, Positions of the X residues are given in the claims; Tested as cell supernatant) VH: QVQLVQSGAEVKKPGASVKVSCKASGYSFTTHWIHWVRQAPGQGLEWIGTIFPSNAYAVYNQKFRDRATMTRDRSISTAYIELSRLRSDDTAVYYCARASYFDYWGQGTTVTVSS VL: EIVLTQSPATLSLSPGERATLSCRASQNIGTSIHWFQQKPGQSPRLLIKYASESISGIPSRFSGSGSGTDFTLTISSLEPEDFAVYYCQHSHSWPFTFGQGTKLEIKR	no
huA1E4F7D4-V3 (antibody, human IgG1, kappa, V domains shown, Positions of the X residues are given in the claims; Tested as cell supernatant) VH: QVQLVQSGAEVKKPGASVKVSCKASGYTFTTHWIHWVRQAPGQGLEWIGTIFPSNAYAVYNQKFRDRATMTADRSISTAYIELSRLRSDDTAVYYCARASYFDYWGQGTTVTVSS VL: EIVLTQSPATLSLSPGERATLSCRASQNIGTSIHWFQQKPGGSPRLLIKYASESISGIPSRFSGSGSGTDFTLTISSLEPEDFAVYYCQHSHSWPFTFGQGTKLEIKR	no
huA1E4F7D4-V12 (antibody, human IgG1, kappa, V domains shown, Positions of the X residues are given in the claims; Tested as cell supernatant) VH: QVQLVQSGAEVKKPGASVKVSCKASGYSFTTHWIHWVRQAPGQGLEWIGTIFPSNAYAVYNQKFRDRATMTADRSISTAYIELSRLRSDDTAVYYCARASYFDYWGQGTTVTVSS VL: EIVLTQSPATLSLSPGERATLSCRASQNIGTSIHWFQQKPGGAPRLLIKYASESISGIPSRFSGSGSGTDFTLTISSLEPEDFAVYYCQHSHSWPFTFGQGTKLEIKR	no

# input for lookup
Task item: Determine if huA1E4F7D4-V15 (antibody, human IgG1, kappa, V domains shown, Positions of the X residues are given in the claims; Tested as cell supernatant) VH: QVQLVQSGAEVKKPGASVKVSCKASGYSFTTHWIHWVRQAPGQGLEWIGTIFPSNAYAVYNQKFRDRATMTRDRSISTAYIELSRLRSDDTAVYYCARASYFDYWGQGTTVTVSS VL: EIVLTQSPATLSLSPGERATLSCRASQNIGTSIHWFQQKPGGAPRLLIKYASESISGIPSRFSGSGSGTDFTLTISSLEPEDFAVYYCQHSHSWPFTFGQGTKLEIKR shows Kd strictly lower than 0.2 nM.
Reply: no

Recorded values, source patent US20240207432A1.
